Reported normalized growth values for the following compounds.
# Method Summary: chemical genetic growth profiling, strain panel (AID 1159580);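 further: tested at 20 µM; growth read once vehicle control cultures reached saturation at 30 °C; 1 = growth at the plate median or of vehicle wells; lower values mean less growth of the strain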
# Assay Setup: S. cerevisiae deletion strains, growth OD, locus YLR330W, strain CHS5, stronger effect = lower value
The campaign covered roughly 5,500 compounds. About 2,000 (36%) were called active. Roughly 18% stayed inconclusive and do not appear here. This is one part of the list. Where a SMILES comes first, the peptide text is derived from it.
Please reply with the value in numeric form only.

# count of solved cases: 4
O=c1cc(-c2ccccc2)oc2cc(O)c(O)c(O)c12
0.543
O=c1cc(-c2ccccc2)oc2cc(O)cc(O)c12
0.972
Nc1ccncc1
1.01
NCCCCC(N)C(=O)NC(Cc1ccc(O)cc1)C(=O)NC(CCCCN)C(=O)O (stereo not drawn) (H-Lys-Tyr-Lys-OH; configuration not given here)
0.987

Q: Item `NC(N)=NCCC[C@@H](NC(=O)[C@@H](N)Cc1ccc(O)cc1)C(=O)O` : provide normalized growth
A: 1.01

Q: Item `CCOC(=O)[C@H](CCc1ccccc1)N[C@@H](C)C(=O)N1Cc2ccccc2C[C@H]1C(=O)O` : provide normalized growth
A: 1

Q: Item `O=c1[nH]cnc2[nH]ncc12` : provide normalized growth
A: 1

###

# Method Summary: chemical genetic growth profiling, strain panel (AID 1159580);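 further: tested at 20 µM; growth read once vehicle control cultures reached saturation at 30 °C; 1 = growth at the plate median or of vehicle wells; lower values mean less growth of the strain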
# Assay Setup: S. cerevisiae deletion strains, growth OD, locus YBR279W, strain paf1, stronger effect = lower value
Hit rate of the full screen: of about 5,500 compounds, about 2,000 (36%) were called active. Inconclusive results (about 18%) are left out. The list shows a part of the results.
Measured Attribute: normalized growth
Please reply with the value in numeric form only.

# count of solved cases: 2
Cc1nc2ccccn2c(=O)c1CCN1CCC(C(=O)c2ccc(F)cc2)CC1
0.977
C[C@H](CCC(=O)O)[C@H]1CCC2C3C(CC[C@@]21C)[C@@]1(C)CC[C@@H](O)C[C@H]1C[C@H]3O (stereo partly specified)
1.01

Q: Item `CC12CC3CC(C)(C1)CC(N)(C3)C2` : provide normalized growth
A: 0.981

Q: Item C=C1C(C2(C)C=CC(=O)C(C)(C)C2CC(=O)OC)CC[C@@]2(C)[C@H](c3ccoc3)OC(=O)C3OC132 (stereo partly specified) : provide normalized growth
A: 0.999

Q: Item `CN(C)C(=O)Nc1ccc(Cl)c(Cl)c1` : provide normalized growth
A: 0.97

Q: Item `CCC(=O)Nc1ccc(Cl)c(Cl)c1` : provide normalized growth
A: 0.99

###

# Method Summary: chemical genetic growth profiling, strain panel (AID 1159580);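 further: tested at 20 µM; growth read once vehicle control cultures reached saturation at 30 °C; 1 = growth at the plate median or of vehicle wells; lower values mean less growth of the strain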
# Assay Setup: S. cerevisiae deletion strains, growth OD, locus YMR058W, strain fet3, stronger effect = lower value
About 2,000 (36%) of roughly 5,500 compounds were called active. Roughly 18% stayed inconclusive and do not appear here. The list shows a part of the results.
Reported normalized growth values for the following molecules.
Please reply with the value in numeric form only.

# count of solved cases: 3
CCN(CC)CCOC(=O)C(c1ccccc1)c1ccccc1
0.97
NC(=O)c1ncn(C2O[C@H](CO)[C@@H](O)[C@H]2O)c1N (stereo not given in full)
1.03
COC(=O)CCCOc1ccc(Cl)cc1Cl
0.966

Q: Item `CCCC(C(=O)OCCN(CC)CC)(c1ccccc1)c1ccccc1` : provide normalized growth
A: 1

Q: Item `COc1c(Cl)ccc(Cl)c1C(=O)O` : provide normalized growth
A: 0.979

Q: Item Cc1cc(C)cc(OCC2CNC(=O)O2)c1 (stereo not given) : provide normalized growth
A: 0.95

Q: Item `O=C(Nc1ccccc1)Nc1ccccc1` : provide normalized growth
A: 0.946

Q: Item C[C@]12C=CC(=O)C=C1CCC1C3C[C@@H](O)[C@](O)(C(=O)CO)[C@@]3(C)C[C@H](O)[C@@]12F (stereo not given in full) : provide normalized growth
A: 1.04

Q: Item `O=c1cc(-c2ccccc2)oc2cc(O)c(O)c(O)c12` : provide normalized growth
A: 0.223

Q: Item CN(C)CCC(c1ccc(Br)cc1)c1ccccn1 (stereo not given) : provide normalized growth
A: 1.01
